# TARGET UNDER TEST: α1-acid glycoprotein (AGP) (Homo sapiens, UniProt P02763)
# Sequence (P02763 19-201 limits assumed): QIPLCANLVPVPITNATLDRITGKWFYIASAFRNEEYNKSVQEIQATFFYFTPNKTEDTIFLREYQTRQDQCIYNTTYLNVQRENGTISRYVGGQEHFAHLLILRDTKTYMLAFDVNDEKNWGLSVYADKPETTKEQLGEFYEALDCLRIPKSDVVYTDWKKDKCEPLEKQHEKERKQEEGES
# ASSAY NAME: in vitro
# ASSAY SETUP: pH 7.4, logK FL Enhancement
MEASUREMENT LABEL: pKd
Worth noting: pKd values are minus log10 of concentrations stated in mol/L.

IN: Requested field: pKd. Item: C[C@H]1CCCC(=O)CCC/C=C/c2cc(O)cc(O)c2C(=O)O1
OUT: 6.28

----------
# TARGET UNDER TEST: α1-acid glycoprotein (AGP) (Homo sapiens, UniProt P02763)
# ASSAY NAME: in vitro
# ASSAY SETUP: pH 7.4, logK ± SEM 2. (FL quenching)
MEASUREMENT LABEL: Kd (nM)
Quick note: give the figure in nM, leave out the unit.

IN: Requested field: Kd. Item: C[C@H]1CCCC(=O)CCC/C=C/c2cc(O)cc(O)c2C(=O)O1
OUT: 1450
